Target: T1, Aurora A_(D274N) kinase domain (human, UniProt O14965 122-403, D274N)
T1 construct: Aurora A kinase, human, kinase domain residues 122-403, kinase dead D274N; theoretical mass 33.8 kDa; Cloned into pHAT5 in frame with a C-terminal 6xHis-tag; also called kinase dead human Aurora A D274N mutant; source: E. coli BL21(DE3), purified (HisTrap HP, Superdex 75 SEC); not shown: His6, C-terminal, kept
T1 sequence (looked up): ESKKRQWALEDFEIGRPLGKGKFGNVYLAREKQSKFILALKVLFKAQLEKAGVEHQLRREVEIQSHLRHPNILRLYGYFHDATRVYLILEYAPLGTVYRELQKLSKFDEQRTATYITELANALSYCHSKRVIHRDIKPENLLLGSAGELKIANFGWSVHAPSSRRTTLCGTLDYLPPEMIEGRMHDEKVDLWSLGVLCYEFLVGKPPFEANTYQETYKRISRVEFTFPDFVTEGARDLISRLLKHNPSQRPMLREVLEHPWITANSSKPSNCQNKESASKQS
Assay: fluorescence polarisation; fluorescence anisotropy, direct titration of kinase (CK2α 2 nM-2 μM; Aurora A D274N 2 nM-1.5 μM) into labelled peptide or display protein; 10 mM HEPES pH 7.4, 500 mM NaCl, 1 mM DTT, 0.05% P20; room temperature; 1:1 model
Settings: both partners purified
Ends that are not written are not given here.
Endpoint: pKd
Lab note — pKd values are minus log10 of concentrations in M.

Asked: pKd for LSYSYDAPSDFINFSSLDDEGDTQNIDSWFEEKANLENLKGGGC(Alexa Fluor 488‑maleimide)QM (residue before the TPX2 stretch in the printed peptide; TPX2, human, residues 7-43; C-terminal extension of the printed peptide with the cysteine that is labelled; As m10, labelled; the methods speak of 'free N-terminal cysteines' but the only cysteine of the printed peptide is near its C-terminus; also called Alexa Fluor 488-labeled TPX2 peptide; labeled wild-type TPX2 peptide; source: E. coli …) [Alexa Fluor 488-TPX2_((7–43)) peptide] ?
Given back: 7.13

These measurements were taken from paper PMC5897841.
